measured-target: GDP-bound KRAS wild-type protein (Homo sapiens, UniProt P01116)
Sequence (P01116 1-188 isoform P01116-2): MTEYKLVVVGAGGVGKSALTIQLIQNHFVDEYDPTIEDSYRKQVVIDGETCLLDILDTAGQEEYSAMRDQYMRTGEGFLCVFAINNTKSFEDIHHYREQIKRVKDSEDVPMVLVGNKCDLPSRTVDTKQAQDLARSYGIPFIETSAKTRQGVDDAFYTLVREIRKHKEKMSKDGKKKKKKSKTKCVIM
method: Binding to KRAS by surface plasmon resonance (SPR), dissociation constant KD
measurement-setup: 1:1 binding model
Where a SMILES comes first, the peptide text is derived from it. Bridges are numbered along the chain shown (N, C = ends). [ ]: non-standard residue; d: D form. The star is where a group is joined. hPhe(3-Cl-4-CF3) = N[C@@H](CCc1ccc(C(F)(F)F)c(Cl)c1)C(=O)O; NPrPhe(4-CF3) = CCCN[C@@H](Cc1ccc(C(F)(F)F)cc1)C(=O)O; NMeGly(cPent) = CN[C@H](C(=O)O)C1CCCC1; Aze(3S-Me) = C[C@H]1CN[C@@H]1C(=O)O; Hyp = O=C(O)[C@@H]1C[C@@H](O)CN1; NMeD = CN[C@@H](CC(=O)O)C(=O)O; NMeL = CN[C@@H](CC(C)C)C(=O)O; Morpholide = C1CN(*)CCO1; Ac5c = NC1(C(=O)O)CCCC1; Aze = O=C(O)[C@@H]1CCN1; Sar = CNCC(=O)O
For each entry below, report its Kd value.

CCC[C@H]1C(=O)N[C@@H]([C@@H](C)CC)C(=O)N2CCC[C@H]2C(=O)N(C)[C@H]2C/C=C\CCN(C2=O)[C@@H](Cc2ccc(C)cc2)C(=O)N(C)CC(=O)N[C@@H](CCc2ccc(C(F)(F)F)c(OC)c2)C(=O)N2C[C@@H](C)C[C@H]2C(=O)N(C)C2(CCC2)C(=O)N(C)[C@@H](C2CCCC2)C(=O)N(C)[C@H](C(=O)N(C)C)CC(=O)N1C | 0.045 nM
CCCN1C(=O)CN(C)C(=O)[C@@H]2CCN2C(=O)[C@H]([C@@H](C)CC)NC(=O)[C@H](CC(C)C)N(C)C(=O)C[C@@H](C(=O)N2CCOCC2)NC(=O)[C@H](C2CCCC2)N(C)C(=O)C2(CCCC2)NC(=O)[C@@H]2C[C@@H](OCC)CN2C(=O)[C@H](CCc2ccc(C(F)(F)F)c(Cl)c2)NC(=O)CN(C)C(=O)[C@@H]1Cc1ccc(C(F)(F)F)cc1 [PP0341] ([NMeL]I[Aze][Sar][NPrPhe(4-CF3)][Sar][hPhe(3-Cl-4-CF3)][Hyp](Et)[Ac5c][NMeGly(cPent)]D-Morpholide; lactam N-11) | 1.4 nM
CCO[C@H](C)[C@@H]1NC(=O)[C@H](CC(C)C)N(C)C(=O)C[C@@H](C(=O)N(C)CC)N(C)C(=O)[C@H](C2CCCC2)N(C)C(=O)C2(CC(C)(C)C2)NC(=O)[C@@H]2C[C@H](C)CN2C(=O)[C@H](CCc2cc(F)c(C(F)(F)F)c(F)c2)NC(=O)CN(C)C(=O)[C@H](Cc2ccc(C)cc2)N2CC/C=C\C[C@@H](C2=O)N(C)C(=O)CN(C)C1=O | 0.33 nM
CCCOC[C@H]1C(=O)N[C@@H]([C@@H](C)CC)C(=O)N(C)CC(=O)N(C)[C@H]2C/C=C\CCN(C2=O)[C@@H](Cc2ccc(C)cc2)C(=O)N(C)CC(=O)N[C@@H](CCc2ccc(C(F)(F)F)c(OC)c2)C(=O)N2C[C@H](OCC)C[C@H]2C(=O)NC2(CC(C)(C)C2)C(=O)N(C)[C@@H](CC(C)(C)C)C(=O)N(C)[C@H](C(=O)N(C)C)CC(=O)N1C | 0.11 nM
CCCOC[C@H]1C(=O)N[C@@H]([C@@H](C)CC)C(=O)N(C)CC(=O)N(C)[C@H]2C/C=C\CCN(C2=O)[C@@H](Cc2ccc(C)cc2)C(=O)N(C)CC(=O)N[C@@H](CCc2ccc(C(F)(F)F)c(Cl)c2)C(=O)N2C[C@H](OCC)C[C@H]2C(=O)NC2(CC(C)(C)C2)C(=O)N(C)[C@@H](C2CCCC2)C(=O)N(C)[C@H](C(=O)N(C)C)CC(=O)N1C | 0.092 nM
CCC[C@H]1C(=O)N[C@@H](CC(C)C)C(=O)N(CCOC)CC(=O)N(C)[C@H]2C/C=C\CCN(C2=O)[C@@H](Cc2ccc(C)cc2)C(=O)N(C)CC(=O)N[C@@H](CCc2ccc(C(F)(F)F)c(Cl)c2)C(=O)N2C[C@H](OCC)C[C@H]2C(=O)NC2(CCC2)C(=O)N(C)[C@@H](C2CCCC2)C(=O)N(C)[C@H](C(=O)N(C)C)CC(=O)N1C | 4.7 nM
CCOC[C@H]1C(=O)N[C@@H]([C@@H](C)CC)C(=O)N(C)CC(=O)N(C)[C@H]2C/C=C\CCN(C2=O)[C@@H](Cc2ccc(C)cc2)C(=O)N(C)CC(=O)N[C@@H](CCc2ccc(C(F)(F)F)c(OC)c2)C(=O)N2C[C@H](OCC)C[C@H]2C(=O)NC2(CC(C)(C)C2)C(=O)N(C)[C@@H](C2CCCC2)C(=O)N(C)[C@H](C(=O)N(C)CC)CC(=O)N1C | 0.14 nM
CCCN1C(=O)CN(C)C(=O)[C@@H]2[C@@H](C)CN2C(=O)[C@H]([C@@H](C)CC)NC(=O)[C@H](CC(C)C)N(C)C(=O)C[C@@H](C(=O)N2CCOCC2)N(C)C(=O)[C@H](C2CCCC2)N(C)C(=O)C2(CCCC2)NC(=O)[C@@H]2CCCN2C(=O)[C@H](CCc2ccc(C(F)(F)F)c(Cl)c2)NC(=O)CN(C)C(=O)[C@@H]1Cc1ccc(C(F)(F)F)cc1 [PP0258] ([NMeL]I[Aze(3S-Me)][Sar][NPrPhe(4-CF3)][Sar][hPhe(3-Cl-4-CF3)]P[Ac5c][NMeGly(cPent)][NMeD]-Morpholide; lactam N-11) | 0.52 nM

# map each compound to its Kd
1. CCOC[C@H]1C(=O)N[C@@H]([C@@H](C)CC)C(=O)N(C)CC(=O)N(C)[C@H]2C/C=C\CCN(C2=O)[C@@H](Cc2ccc(C(F)(F)F)cc2)C(=O)N(C)CC(=O)N[C@@H](CCc2cc(F)c(C(F)(F)F)c(F)c2)C(=O)N2C[C@H](OCC)C[C@H]2C(=O)NC2(CC(C)(C)C2)C(=O)N(C)[C@@H](CC2CCC2)C(=O)N(C)[C@H](C(=O)N(C)C)CC(=O)N1C
2. CCOC[C@H]1C(=O)N[C@@H]([C@@H](C)CC)C(=O)N(C)CC(=O)N(C)[C@H]2C/C=C\CCN(C2=O)[C@@H](Cc2ccc(C(F)(F)F)cc2)C(=O)N(C)CC(=O)N[C@@H](CCc2ccc(Cl)c(Cl)c2)C(=O)N2C[C@H](OCC)C[C@H]2C(=O)NC2(CC(C)(C)C2)C(=O)N(C)[C@@H](CC2CCC2)C(=O)N(C)[C@H](C(=O)N(C)C)CC(=O)N1C
3. CCC[C@H]1C(=O)N[C@@H](C2CCOCC2)C(=O)N(C)CC(=O)N(C)[C@H]2C/C=C\CCN(C2=O)[C@@H](Cc2ccc(C)cc2)C(=O)N(C)CC(=O)N[C@@H](CCc2ccc(C(F)(F)F)c(Cl)c2)C(=O)N2C[C@H](OCC)C[C@H]2C(=O)NC2(CC(C)(C)C2)C(=O)N(C)[C@@H](CC(C)(C)C)C(=O)N(C)[C@H](C(=O)N(C)C)CC(=O)N1C

1: 0.86 nM; 2: 0.49 nM; 3: 0.66 nM

Where these numbers come from: patent EP4603105A1
